variants and their reported protein stability index
B1: SMG5 (parent)
chain: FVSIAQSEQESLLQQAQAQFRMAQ

variants of: B1; assay: protein stability index of a GFP-peptide fusion (GPS, HEK-293T) (PSI 1-6); higher = more stable; details: c terminus: a fixed tail appended;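 also: lentivirally expressed fusions sorted by FACS into six bins by GFP to DsRed ratio, PSI derived from sequencing read proportions per bin multiplied by bin number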
Give the value as a plain number.

[
  {
    "VARIANT_KEY": "Q17C",
    "PROPERTY_LABEL": "protein stability index",
    "MEASURED": 1.76
  },
  {
    "VARIANT_KEY": "E8K",
    "PROPERTY_LABEL": "protein stability index",
    "MEASURED": 2.07
  },
  {
    "VARIANT_KEY": "A5D",
    "PROPERTY_LABEL": "protein stability index",
    "MEASURED": 3.41
  },
  {
    "VARIANT_KEY": "A23Q",
    "PROPERTY_LABEL": "protein stability index",
    "MEASURED": 2.29
  }
]

Any idea what protein stability index was measured for A23K ? 2.12

Any idea what protein stability index was measured for L12S ? 2.21

Any idea what protein stability index was measured for A16K ? 1.68

Any idea what protein stability index was measured for Q24L ? 2.4

Any idea what protein stability index was measured for A23M ? 2.17

Numbers sourced from the supplement of paper PMC10567573.
